Target: human PI3Kbeta p110 catalytic subunit (Rat-1 pBABEpuro Myr-HA-hp110 beta) (Homo sapiens, UniProt P42338)
Construct: Myr (myristoylation signal) (N); HA (N); expressed in transfected cells; host or cells: Rat-1
Sequence (P42338 whole entry, one chain of several): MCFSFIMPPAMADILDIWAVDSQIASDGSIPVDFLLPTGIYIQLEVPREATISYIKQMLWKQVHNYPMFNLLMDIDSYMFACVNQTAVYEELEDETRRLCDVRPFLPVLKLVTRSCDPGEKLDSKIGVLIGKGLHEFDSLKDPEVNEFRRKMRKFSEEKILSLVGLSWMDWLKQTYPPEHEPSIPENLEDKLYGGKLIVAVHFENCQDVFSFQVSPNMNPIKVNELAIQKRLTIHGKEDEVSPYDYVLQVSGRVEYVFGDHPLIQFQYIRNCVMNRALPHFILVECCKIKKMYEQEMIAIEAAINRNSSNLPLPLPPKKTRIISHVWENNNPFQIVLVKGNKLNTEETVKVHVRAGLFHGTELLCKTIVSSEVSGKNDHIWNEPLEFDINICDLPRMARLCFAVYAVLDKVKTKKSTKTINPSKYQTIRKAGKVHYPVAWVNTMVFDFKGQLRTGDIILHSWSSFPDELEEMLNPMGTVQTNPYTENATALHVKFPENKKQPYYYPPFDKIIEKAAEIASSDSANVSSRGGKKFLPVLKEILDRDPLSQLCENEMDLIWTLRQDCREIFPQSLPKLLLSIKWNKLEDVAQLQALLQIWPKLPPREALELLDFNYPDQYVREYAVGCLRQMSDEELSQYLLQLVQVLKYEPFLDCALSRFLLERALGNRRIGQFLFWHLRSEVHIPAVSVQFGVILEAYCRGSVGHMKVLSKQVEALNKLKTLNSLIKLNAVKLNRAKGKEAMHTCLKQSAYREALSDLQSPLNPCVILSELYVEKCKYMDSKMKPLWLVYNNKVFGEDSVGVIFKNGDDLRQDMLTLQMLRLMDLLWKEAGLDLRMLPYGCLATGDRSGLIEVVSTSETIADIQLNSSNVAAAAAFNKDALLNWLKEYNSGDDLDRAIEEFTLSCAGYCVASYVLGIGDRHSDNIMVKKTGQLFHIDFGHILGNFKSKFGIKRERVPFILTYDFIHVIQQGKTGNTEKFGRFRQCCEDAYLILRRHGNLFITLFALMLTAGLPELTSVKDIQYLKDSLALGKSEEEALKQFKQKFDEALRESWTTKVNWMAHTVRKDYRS
Assay: Cellular assay PI3Kbeta (p-Akt(S473) SureFire, Rat-1_PI3beta cells)
Type: cell-based
Details: fourth measurement, outlier; read-out: Rat1-PI3Kb IC50, fourth measurement (footnote)
quantity name: pIC50
# pIC50 is unitless: minus log10 of the molar concentration; print number only

For the molecule C[C@H]1COC(=O)N1c1cc(-c2cnc(N)nc2C(F)(F)F)nc(N2CCOCC2)n1 , what pIC50 is on record? 5.41

====

Provide the recorded IC50 for the entries that follow.
Target: human PI3Kdelta p110 catalytic subunit (Rat-1 pBABEpuro Myr-HA-hp110 delta) (Homo sapiens, UniProt O00329)
Construct: Myr (myristoylation signal) (N); HA (N)
Sequence (O00329 whole entry): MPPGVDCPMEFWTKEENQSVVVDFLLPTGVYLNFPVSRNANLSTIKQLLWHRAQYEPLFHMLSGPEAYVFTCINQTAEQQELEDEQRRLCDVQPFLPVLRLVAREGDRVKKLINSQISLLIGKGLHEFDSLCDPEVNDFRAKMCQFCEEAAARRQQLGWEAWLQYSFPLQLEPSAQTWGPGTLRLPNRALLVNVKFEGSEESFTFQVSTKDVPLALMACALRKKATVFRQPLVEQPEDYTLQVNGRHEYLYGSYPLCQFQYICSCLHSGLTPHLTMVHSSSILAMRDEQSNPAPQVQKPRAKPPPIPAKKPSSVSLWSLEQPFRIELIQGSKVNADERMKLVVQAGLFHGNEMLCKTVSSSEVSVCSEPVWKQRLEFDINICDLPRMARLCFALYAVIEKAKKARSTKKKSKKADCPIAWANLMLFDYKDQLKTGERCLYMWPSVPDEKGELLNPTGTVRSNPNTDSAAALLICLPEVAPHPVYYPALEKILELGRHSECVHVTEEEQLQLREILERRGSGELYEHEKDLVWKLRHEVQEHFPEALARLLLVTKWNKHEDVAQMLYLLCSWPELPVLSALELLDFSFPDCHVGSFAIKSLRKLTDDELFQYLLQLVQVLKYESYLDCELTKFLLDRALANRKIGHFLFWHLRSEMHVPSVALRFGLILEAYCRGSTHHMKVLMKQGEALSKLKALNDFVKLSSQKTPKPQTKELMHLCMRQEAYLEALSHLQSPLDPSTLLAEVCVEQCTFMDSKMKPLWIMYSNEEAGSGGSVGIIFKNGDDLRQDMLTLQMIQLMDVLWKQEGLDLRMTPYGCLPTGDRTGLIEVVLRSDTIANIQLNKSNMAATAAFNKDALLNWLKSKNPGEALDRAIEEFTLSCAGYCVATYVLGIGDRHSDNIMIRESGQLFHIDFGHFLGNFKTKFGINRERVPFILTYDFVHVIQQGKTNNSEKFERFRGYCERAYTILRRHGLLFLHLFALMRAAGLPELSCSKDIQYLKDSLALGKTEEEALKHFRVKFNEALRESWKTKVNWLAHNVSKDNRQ
Sequence (Q63787 whole entry partner): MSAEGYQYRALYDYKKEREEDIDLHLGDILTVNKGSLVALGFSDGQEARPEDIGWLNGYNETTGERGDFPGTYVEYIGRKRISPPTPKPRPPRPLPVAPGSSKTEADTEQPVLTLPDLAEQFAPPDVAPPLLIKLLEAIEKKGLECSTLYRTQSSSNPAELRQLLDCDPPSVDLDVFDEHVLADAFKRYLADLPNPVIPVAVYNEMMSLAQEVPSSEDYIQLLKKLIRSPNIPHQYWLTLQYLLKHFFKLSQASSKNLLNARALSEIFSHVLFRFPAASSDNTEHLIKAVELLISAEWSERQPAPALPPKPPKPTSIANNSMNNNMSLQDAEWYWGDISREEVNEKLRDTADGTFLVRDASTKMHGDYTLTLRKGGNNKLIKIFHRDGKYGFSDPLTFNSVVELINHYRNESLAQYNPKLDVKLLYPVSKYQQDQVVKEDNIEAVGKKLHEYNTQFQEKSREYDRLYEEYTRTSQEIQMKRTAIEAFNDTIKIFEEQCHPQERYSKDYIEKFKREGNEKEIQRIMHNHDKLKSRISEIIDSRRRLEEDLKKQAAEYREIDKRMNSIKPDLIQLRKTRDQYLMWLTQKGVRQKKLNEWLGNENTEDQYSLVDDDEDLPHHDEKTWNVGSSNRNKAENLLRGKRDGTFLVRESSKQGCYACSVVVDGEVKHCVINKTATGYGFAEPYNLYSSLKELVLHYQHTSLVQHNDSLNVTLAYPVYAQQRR
Experiment: Cellular assay PI3Kdelta (p-Akt(S473) SureFire, Rat-1_PI3Kdelta cells)
Settings: 1 h compound treatment, read-out: Rat1-PI3Kd/ IC50
Source text: AlphaScreen (Amplified Luminescent Proximity Homogeneous Assay, ALPHA, Perkin Elmer) is a non-radioactive bead-based proximity assay technology to study biomolecular interactions in a homogenous microtiter plate format. The brand name SureFire denotes AlphaScreen assays that are adapted to quantify the phosphorylation of endogenous cellular proteins in cell lysates, by using matched antibody pairs, which consist of an anti-phospho-kinase and an anti-kinase antibody. […]
Write the number in nM without appending the unit.

Please give the measured IC50 for this compound: C[C@H]1OC(=O)N(c2cc(-c3cnc(N)nc3C(F)(F)F)nc(N3CCOC[C@@H]3C)n2)[C@H]1CO 52

Given C[C@@H](O)C[C@H]1OC(=O)N(c2cc(-c3cnc(N)nc3C(F)(F)F)nc(N3CCOCC3)n2)[C@H]1C (single isomer, unassigned) , state its recorded IC50. 7

What does the record list as IC50 for Nc1ncc(-c2cc(N3C(=O)OC4C(O)CCC43)nc(N3CCOCC3)n2)c(C(F)(F)F)n1 (single isomer, unassigned) [Example 22A] ? 27

Value lookup for IC50; key = CC1(CO)COC(=O)N1c1cc(-c2cnc(N)nc2C(F)(F)F)nc(N2CCOCC2)n1 (single isomer, unassigned) [Example 3A] 59

So what does the record say about IC50 for CC1(CO)COC(=O)N1c1cc(-c2cnc(N)nc2C(F)(F)F)nc(N2CCOCC2)n1 (racemic) [Example 3] ? 73

GET /values?readout=IC50&item= C[C@H]1COCCN1c1nc(-c2cnc(N)nc2C(F)(F)F)cc(N2C(=O)OC[C@@H]2C)n1 42

====

Molecular target: human PI3Kdelta p110 catalytic subunit (Rat-1 pBABEpuro Myr-HA-hp110 delta) (Homo sapiens, UniProt O00329)
Construct: Myr (myristoylation signal) (N); HA (N)
Assay: Cellular assay PI3Kdelta (p-Akt(S473) SureFire, Rat-1_PI3Kdelta cells)
Settings: 1 h compound treatment, read-out: Rat1-PI3Kd/ IC50
Kindly apply the following: condition met if IC50 is less than 50 nM, condition not met in every other case.

In the record for Nc1ncc(-c2cc(N3C(=O)O[C@H]4CCCC[C@@H]43)nc(N3CCOCC3)n2)c(C(F)(F)F)n1 , is IC50 less than 50 nM? condition met

Decide: IC50 of Nc1ncc(-c2cc(N3C[C@@H](CO)OC3=O)nc(N3CCOCC3)n2)c(C(F)(F)F)n1 strictly below 50 nM? condition not met

Could you please tell me whether IC50 recorded for C[C@@H]1OC(=O)N(c2cc(-c3cnc(N)nc3C(F)(F)F)nc(N3CCOCC3)n2)[C@H]1CO is less than 50 nM? condition met

Report whether reported IC50 is lower than 50 nM (strictly) for CC1(C)OC(=O)N(c2cc(-c3cnc(N)nc3C(F)(F)F)nc(N3CCOCC3)n2)[C@H]1CO condition not met

Report whether reported IC50 is lower than 50 nM (strictly) for C[C@H]1[C@H](CO)OC(=O)N1c1cc(-c2cnc(N)nc2C(F)(F)F)nc(N2CCOCC2)n1 condition not met

In plain terms, does Nc1ncc(-c2cc(N3C(=O)O[C@@H]4[C@@H](O)CC[C@@H]43)nc(N3CCOCC3)n2)c(C(F)(F)F)n1 (racemic) come in under 50 nM for IC50? condition met

Check if IC50 falls below 50 nM for C[C@H]1[C@@H](CO)OC(=O)N1c1cc(-c2cnc(N)nc2C(F)(F)F)nc(N2CCOCC2)n1 . condition met
